Catalogue of Excess HSA Score readings, one per entry.
# Tested on: THP1 cells
# METHOD_DESCRIPTION: Combination drug screening, Cell Titer Glo, THP1 cells;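 note: luminescence read out in 1536-well plates seeded with 500 THP1 cells per well, each drug spanning a 10-point concentration range in the combination matrix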
# CONDITION_SUMMARY: sum score; listed as compound in combination with Compound 106; THP1 cells; 10 × 10 dataset; 48 hours
# print the numeric value only

// returns reported Excess HSA Score for input CC1(C)CCC(CN2CCN(c3ccc(C(=O)NS(=O)(=O)c4ccc(NCC5CCOCC5)c([N+](=O)[O-])c4)c(Oc4cnc5[nH]ccc5c4)c3)CC2)=C(c2ccc(Cl)cc2)C1 [Venetoclax (ABT-199), Venetoclax]
−1478

// returns reported Excess HSA Score for input COCC1(CO)C(=O)C2CCN1CC2 (stereo not drawn) [Eprenetapopt/APR-246, APR-246 (Eprenetapopt)]
268

// returns reported Excess HSA Score for input CC(C)Nc1cc(-c2c[nH]c(C(=O)N[C@H](CO)c3cccc(Cl)c3)c2)c(Cl)cn1 [Ulixertinib, ulixertinib]
−630.1436

// returns reported Excess HSA Score for input N#Cc1ccnc(N2C(=O)CC[C@H]2C(=O)N(c2cncc(F)c2)[C@H](C(=O)NC2CC(F)(F)C2)c2ccccc2Cl)c1 [Ivosidenib, ivosidenib]
354.6

// returns reported Excess HSA Score for input CC(C)[C@@H](CS(=O)(=O)C(C)C)N1C(=O)[C@@](C)(CC(=O)O)C[C@H](c2cccc(Cl)c2)[C@H]1c1ccc(Cl)cc1 [AMG-232, navtemadlin]
394.3

--- query ---
// returns reported Excess HSA Score for input Nc1cccc2c1CN(C1CCC(=O)NC1=O)C2=O (stereo not drawn) [Lenalidomide]
386.8
